The reported numbers originate from ChEMBL document CHEMBL1155302.

# Tested on: RPMI-8226
# Experiment: Antitumor activity against human RPMI8226 cells assessed as cell viability at 50 uM after 24 hrs by MTT assay relative to control
# Type: functional
# Conditions: RPMI-8226, 24 h, read-out: Activity
Sorting guide: entries reporting viability at 50 µM beneath 70% go in the Satisfied pile, the rest go in the Not satisfied pile.

O=c1c(-c2ccccc2)nnc2n1CCN2c1ccccc1Cl: Not satisfied
O=c1c(-c2ccccc2)nnc2n1CCN2c1ccc(Cl)cc1: Satisfied
Cc1cccc(N2CCn3c2nnc(-c2ccccc2)c3=O)c1: Not satisfied

Report whether reported viability at 50 µM is lower than 70% (strictly) for COc1ccc(N2CCn3c2nnc(-c2ccccc2)c3=O)cc1
Satisfied

Report whether reported viability at 50 µM is lower than 70% (strictly) for O=c1c(-c2ccccc2)nnc2n1CCN2c1cc(Cl)ccc1Cl
Satisfied

* * *

# Experiment: Cytotoxicity against human HSF cells assessed as cell viability at 50 uM after 24 hrs by MTT assay relative to control
# Assay type: cell-based
# Conditions: read-out: Activity
Listed compounds paired with reported viability at 24 h, 50 µM
Use % as the unit, but write only the number.

Known results for compounds:
Cc1cccc(N2CCn3c2nnc(-c2ccccc2)c3=O)c1: 94
O=c1c(-c2ccccc2)nnc2n1CCN2c1ccc(Cl)cc1: 96
COc1ccc(N2CCn3c2nnc(-c2ccccc2)c3=O)cc1: 64
O=c1c(-c2ccccc2)nnc2n1CCN2c1cccc(Cl)c1: 85
O=c1c(-c2ccccc2)nnc2n1CCN2c1ccccc1Cl: 104

Answer with reported viability at 24 h, 50 µM of O=c1c(-c2ccccc2)nnc2n1CCN2c1ccc(Cl)c(Cl)c1
48

Answer with reported viability at 24 h, 50 µM of O=c1c(-c2ccccc2)nnc2n1CCN2c1cc(Cl)ccc1Cl
31

* * *

# Test system: RPMI-8226
# Experiment: Antitumor activity against human RPMI8226 cells assessed as cell viability at 1 uM after 24 hrs by MTT assay relative to control
# Assay type: functional
# Conditions: RPMI-8226, 24 h, read-out: Activity
Listed molecules paired with reported viability at 1 µM
Use % as the unit, but write only the number.

Known results for molecules:
Cc1cccc(N2CCn3c2nnc(-c2ccccc2)c3=O)c1: 107
COc1ccc(N2CCn3c2nnc(-c2ccccc2)c3=O)cc1: 106
O=c1c(-c2ccccc2)nnc2n1CCN2c1ccc(Cl)cc1: 101

Answer with reported viability at 1 µM of O=c1c(-c2ccccc2)nnc2n1CCN2c1cccc(Cl)c1
105

Answer with reported viability at 1 µM of O=c1c(-c2ccccc2)nnc2n1CCN2c1ccccc1Cl
103

Answer with reported viability at 1 µM of O=c1c(-c2ccccc2)nnc2n1CCN2c1ccc(Cl)c(Cl)c1
108

Answer with reported viability at 1 µM of O=c1c(-c2ccccc2)nnc2n1CCN2c1cc(Cl)ccc1Cl
109

* * *

# Experiment: Cytotoxicity against human HSF cells assessed as cell viability at 1 uM after 24 hrs by MTT assay relative to control
# Assay type: cell-based
# Conditions: read-out: Activity
Listed compounds paired with reported viability at 24 h, 1 µM

Answer with reported viability at 24 h, 1 µM of O=c1c(-c2ccccc2)nnc2n1CCN2c1ccc(Cl)cc1
104%

Answer with reported viability at 24 h, 1 µM of O=c1c(-c2ccccc2)nnc2n1CCN2c1ccc(Cl)c(Cl)c1
93%

Answer with reported viability at 24 h, 1 µM of O=c1c(-c2ccccc2)nnc2n1CCN2c1cc(Cl)ccc1Cl
87%

Answer with reported viability at 24 h, 1 µM of Cc1cccc(N2CCn3c2nnc(-c2ccccc2)c3=O)c1
100%

Answer with reported viability at 24 h, 1 µM of O=c1c(-c2ccccc2)nnc2n1CCN2c1cccc(Cl)c1
108%

Answer with reported viability at 24 h, 1 µM of COc1ccc(N2CCn3c2nnc(-c2ccccc2)c3=O)cc1
88%

Answer with reported viability at 24 h, 1 µM of O=c1c(-c2ccccc2)nnc2n1CCN2c1ccccc1Cl
108%

* * *

# Experiment: Antimetastatic activity against human HeLaB cells assessed as inhibition of cell motility at 25 uM after 24 hrs relative to control
# Type: functional
# Parameters: scale not given: the % may be the effect or the level left
Listed compounds paired with reported Activity
Use % as the unit, but write only the number.

Known results for compounds:
Cc1cccc(N2CCn3c2nnc(-c2ccccc2)c3=O)c1: 68
O=c1c(-c2ccccc2)nnc2n1CCN2c1cccc(Cl)c1: 52
O=c1c(-c2ccccc2)nnc2n1CCN2c1ccc(Cl)cc1: 50
O=c1c(-c2ccccc2)nnc2n1CCN2c1ccccc1Cl: 59
O=c1c(-c2ccccc2)nnc2n1CCN2c1ccc(Cl)c(Cl)c1: 90
O=c1c(-c2ccccc2)nnc2n1CCN2c1cc(Cl)ccc1Cl: 103

Answer with reported Activity of COc1ccc(N2CCn3c2nnc(-c2ccccc2)c3=O)cc1
59
